molecular target: UniProtKB P09382; assay: Inhibition of recombinant galectin 1 in human O type red blood cells by hemagglutinination assay relative to lactose
Sequence (P09382 whole entry): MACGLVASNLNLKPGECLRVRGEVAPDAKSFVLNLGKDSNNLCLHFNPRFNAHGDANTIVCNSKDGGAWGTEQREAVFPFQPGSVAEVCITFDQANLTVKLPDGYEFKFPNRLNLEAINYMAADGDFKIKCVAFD
measurement label: Activity
API note: the answer field is a bare number with no unit suffix.

Give UniProtKB P09382 Activity for OC[C@@H]1O[C@H](SCC#CC#CCS[C@@H]2O[C@H](CO)[C@H](O)[C@H](O)[C@H]2O)[C@@H](O)[C@@H](O)[C@@H]1O 5

Give UniProtKB P09382 Activity for OC[C@@H]1O[C@H](O[C@@H]2[C@@H](O)[C@H](O)[C@@H](SCC#CC#CCS[C@@H]3O[C@H](CO)[C@@H](O[C@@H]4O[C@H](CO)[C@H](O)[C@H](O)[C@H]4O)[C@H](O)[C@H]3O)O[C@H]2CO)[C@@H](O)[C@H](O)[C@@H]1O 1.3

Give UniProtKB P09382 Activity for OC[C@@H]1O[C@H](O[C@@H]2[C@@H](O)[C@H](O)[C@@H](n3cc(CS[C@@H]4O[C@H](CO)[C@H](O)[C@H](O)[C@H]4O)nn3)O[C@H]2CO)[C@@H](O)[C@H](O)[C@@H]1O 1.3

Give UniProtKB P09382 Activity for OC[C@@H]1O[C@H](SCC#Cc2ccc(C#CCS[C@@H]3O[C@H](CO)C(O)[C@H](O)[C@H]3O)cc2)[C@@H](O)[C@H](O)[C@@H]1O (single isomer, unassigned) 10

Give UniProtKB P09382 Activity for OC[C@@H]1O[C@H](O[C@@H]2[C@@H](O)[C@H](O)[C@@H](n3cc(CS[C@@H]4O[C@H](CO)[C@@H](O[C@@H]5O[C@H](CO)[C@H](O)[C@H](O)[C@H]5O)[C@H](O)[C@H]4O)nn3)O[C@H]2CO)[C@@H](O)[C@H](O)[C@@H]1O 1.3

Give UniProtKB P09382 Activity for OC[C@H]1O[C@@H](C/C=C/c2cccc(/C=C/C[C@@H]3O[C@H](CO)[C@H](O)[C@H](O)[C@H]3O)c2)[C@H](O)[C@@H](O)[C@H]1O 5

Give UniProtKB P09382 Activity for OC[C@@H]1O[C@H](n2cc(CS[C@@H]3O[C@H](CO)[C@@H](O[C@@H]4O[C@H](CO)[C@H](O)[C@H](O)[C@H]4O)[C@H](O)[C@H]3O)nn2)[C@@H](O)[C@H](O)[C@@H]1O 0.7
